Exercise: state measured relative viability for each of the compounds provided.
- Test system: PC-14
- Experimental details: relative viability (nuclei count vs DMSO), 5 days (fraction); higher = more cells survive
- Test context: first compound 4 µM

Task: // query relative viability value for entry C[C@@H]1CN(CC(=O)Nc2ccc3c(c2)Cc2cccc(-c4cc(=O)cc(N5CCOCC5)o4)c2S3)C[C@H](C)O1 + CS(=O)(=O)N1CCN(Cc2cc3nc(-c4cccc5[nH]ncc45)nc(N4CCOCC4)c3s2)CC1 [Pictilisib] (partner 1 µM)
Result: 0.588

Task: Do the same for C[C@@H]1CN(CC(=O)Nc2ccc3c(c2)Cc2cccc(-c4cc(=O)cc(N5CCOCC5)o4)c2S3)C[C@H](C)O1 + Cc1cc(Nc2cc(N3CCN(C)CC3)nc(Sc3ccc(NC(=O)C4CC4)cc3)n2)n[nH]1 [Tozasertib] (partner 0.1 µM) please
Result: 0.482

Task: Repeat for the following compound: COc1cc(N2CCC(C(N)=O)CC2)ccc1Nc1nc(N)c(Cl)c(Nc2ccccc2S(=O)(=O)C(C)C)n1 [HG-5-88-01] + COc1cccc2cc(-c3nc([C@H]4CC[C@H](C(=O)O)CC4)n4ncnc(N)c34)[nH]c12 [OSI-027] (partner 0.5 µM)
Result: 0.218

Task: Next compound: Clc1ccc(Nc2nnc(Cc3ccncc3)c3ccccc23)cc1 [Vatalanib] + C[C@@H](Oc1cc(-c2cnn(C3CCNCC3)c2)cnc1N)c1c(Cl)ccc(F)c1Cl [Crizotinib] (partner 1 µM)
Result: 0.865

Task: // next record C[C@@H]1CN(CC(=O)Nc2ccc3c(c2)Cc2cccc(-c4cc(=O)cc(N5CCOCC5)o4)c2S3)C[C@H](C)O1 + N=C(N)NC(=N)NCCc1ccccc1 [Phenformin] (partner 250 µM)
Result: 0.574

Task: And what about the compound Clc1ccc(Nc2nnc(Cc3ccncc3)c3ccccc23)cc1 [Vatalanib] + CC(=O)c1c(C)c2cnc(Nc3ccc(N4CCNCC4)cn3)nc2n(C2CCCC2)c1=O [Palbociclib] (partner 0.5 µM) ?
Result: 0.532

Task: Now the compound COc1cc(N2CCC(C(N)=O)CC2)ccc1Nc1nc(N)c(Cl)c(Nc2ccccc2S(=O)(=O)C(C)C)n1 [HG-5-88-01] + Nc1nc2[nH]cc(CCc3ccc(C(=O)N[C@@H](CCC(=O)O)C(=O)O)cc3)c2c(=O)[nH]1 [Pemetrexed] (partner 0.2 µM)
Result: 0.074

###

- Test system: EMC-BAC-2
- Experimental details: relative viability (nuclei count vs DMSO), 5 days (fraction); higher = more cells survive
- Test context: first compound 8 µM
Consider the following molecules; for each one, report its relative viability.
API note: the answer field is a bare number with no unit suffix.

Task: relative viability lookup needed for CCCCCCCCCCCC1=C(O)C(=O)C=C(O)C1=O [Embelin] + Nc1ncn([C@H]2C[C@H](O)[C@@H](CO)O2)c(=O)n1 [Decitabine] (partner 2 µM) , thanks.
Result: 0.955

Task: And CCCCCCCCCCCC1=C(O)C(=O)C=C(O)C1=O [Embelin] + NC(=O)Nc1cc(-c2cccc(F)c2)sc1C(=O)N[C@H]1CCCNC1 [AZD7762] (partner 0.2 µM) ?
Result: 1.06

Task: And for CCCCCCCCCCCC1=C(O)C(=O)C=C(O)C1=O [Embelin] + N=C(N)NC(=N)NCCc1ccccc1 [Phenformin] (partner 250 µM) ?
Result: 0.504

Task: Further, for CCCCCCCCCCCC1=C(O)C(=O)C=C(O)C1=O [Embelin] + Nc1nc2[nH]cc(CCc3ccc(C(=O)N[C@@H](CCC(=O)O)C(=O)O)cc3)c2c(=O)[nH]1 [Pemetrexed] (partner 0.2 µM) ?
Result: 0.49

Task: CCCCCCCCCCCC1=C(O)C(=O)C=C(O)C1=O [Embelin] + C[C@@H](Oc1cc(-c2cnn(C3CCNCC3)c2)cnc1N)c1c(Cl)ccc(F)c1Cl [Crizotinib] (partner 1 µM) , same question.
Result: 0.764
